Test system: E. coli (derived from ATCC ® 25922 ™)
Experiment: Bacteriostasis, log reduction
Type: cell-based
Conditions: E. coli ATCC 25922; 24 h
value.kind: Log Value

CC(C)(OCCO)c1ccc(-c2nc3c(c(=O)[nH]2)CSCC3)cc1 = 2.3
O=c1[nH]c(-c2ccc(-c3ccc(Br)nc3)cc2)nc2c1CSCC2 = 5.5
Oc1nc(-c2ccc(C(F)(F)F)cc2)nc2c1CSCC2 [XAV939, reference compound] = 4.4

---

Tested on: S. aureus (MRSA) (derived from ATCC ® 33593 ™)
Assay: Bacteriostasis, log reduction
Type: cell-based
Conditions: S. aureus (MRSA) ATCC 33593; 24 h
Reported values of Average result for individual entries
value.kind: Average result

CC(C)(OCCO)c1ccc(-c2nc3c(c(=O)[nH]2)CSCC3)cc1 [Compound 8] = 3.3 × 10^6
COC(=O)NCCOC(C)(C)c1ccc(-c2nc3c(c(=O)[nH]2)CSCC3)cc1 [Compound 18] = 1.5 × 10^3
O=c1[nH]c(-c2ccc(B(O)O)cc2)nc2c1CSCC2 [Compound 1] = 9.3 × 10^3
O=c1[nH]c(-c2ccc(-c3ccc(Br)nc3)cc2)nc2c1CSCC2 [Compound 7] = 2.7 × 10^3
O=c1[nH]c(-c2ccc(-c3ccc(B(O)O)cc3)cc2)nc2c1CSCC2 [Compound 10] = 3.1 × 10^4
Oc1nc(-c2ccc(C(F)(F)F)cc2)nc2c1CSCC2 [XAV939, reference compound] = 8.7 × 10^4

---

Tested on: E. faecalis (derived from ATCC ® 19433 ™)
Assay: Bacteriostasis, log reduction
Type: cell-based
Conditions: E. faecalis ATCC 19433; 24 h
value.kind: Log Reduction

O=c1[nH]c(-c2ccc(B(O)O)cc2)nc2c1CSCC2 = 1.8
O=c1[nH]c(-c2ccc(-c3ccc(B(O)O)cc3)cc2)nc2c1CSCC2 = 0.3
CC(C)(OCCO)c1ccc(-c2nc3c(c(=O)[nH]2)CSCC3)cc1 = No
O=c1[nH]c(-c2ccc(-c3ccc(Br)nc3)cc2)nc2c1CSCC2 = No
Oc1nc(-c2ccc(C(F)(F)F)cc2)nc2c1CSCC2 [XAV939, reference compound] = No
COC(=O)NCCOC(C)(C)c1ccc(-c2nc3c(c(=O)[nH]2)CSCC3)cc1 = No

---

Tankyrase 2 (TNKS2) (Homo sapiens): reported IC50 for various compounds.
Sequence (Q9H2K2 whole entry, species assumed): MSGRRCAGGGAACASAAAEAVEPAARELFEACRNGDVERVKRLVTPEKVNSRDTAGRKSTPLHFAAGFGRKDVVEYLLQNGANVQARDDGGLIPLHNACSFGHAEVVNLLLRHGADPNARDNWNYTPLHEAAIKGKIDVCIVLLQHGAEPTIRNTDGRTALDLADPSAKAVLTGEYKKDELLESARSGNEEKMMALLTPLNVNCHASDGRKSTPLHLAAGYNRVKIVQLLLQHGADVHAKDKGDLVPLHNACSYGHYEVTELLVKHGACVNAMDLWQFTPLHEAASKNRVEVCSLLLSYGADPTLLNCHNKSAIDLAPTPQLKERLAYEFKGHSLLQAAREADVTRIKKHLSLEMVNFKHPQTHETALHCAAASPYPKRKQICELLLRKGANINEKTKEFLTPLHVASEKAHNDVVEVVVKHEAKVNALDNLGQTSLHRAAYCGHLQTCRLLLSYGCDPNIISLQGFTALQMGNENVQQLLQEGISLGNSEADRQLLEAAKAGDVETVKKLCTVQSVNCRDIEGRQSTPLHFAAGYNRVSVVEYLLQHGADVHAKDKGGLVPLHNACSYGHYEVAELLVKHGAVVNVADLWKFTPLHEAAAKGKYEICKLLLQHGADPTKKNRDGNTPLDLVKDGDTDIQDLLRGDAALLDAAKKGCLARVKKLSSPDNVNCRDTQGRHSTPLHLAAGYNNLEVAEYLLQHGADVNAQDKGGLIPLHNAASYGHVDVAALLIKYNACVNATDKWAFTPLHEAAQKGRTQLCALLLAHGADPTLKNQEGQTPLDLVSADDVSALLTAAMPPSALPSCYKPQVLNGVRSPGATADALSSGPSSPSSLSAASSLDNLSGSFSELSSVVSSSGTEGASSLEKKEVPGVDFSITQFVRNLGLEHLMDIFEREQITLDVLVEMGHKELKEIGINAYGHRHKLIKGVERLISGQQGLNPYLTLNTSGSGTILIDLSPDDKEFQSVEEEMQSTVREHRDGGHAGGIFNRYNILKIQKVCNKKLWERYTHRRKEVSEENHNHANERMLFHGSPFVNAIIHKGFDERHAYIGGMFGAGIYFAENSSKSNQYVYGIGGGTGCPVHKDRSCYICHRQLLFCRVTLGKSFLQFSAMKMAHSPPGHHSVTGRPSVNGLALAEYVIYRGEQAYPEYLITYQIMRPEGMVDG
value.kind: IC50 (nM)

O=c1[nH]c(-c2ccc(B(O)O)cc2)nc2c1CSCC2 [Compound 1] = 26
O=c1[nH]c(N2CCN(c3c(F)cc(OCCO)cc3F)CC2)nc2c1CSCC2 [Compound 42] = 9.7
COC(=O)NCCOC(C)(C)c1ccc(-c2nc3c(c(=O)[nH]2)CSCC3)cc1OC [Compound 34] = 164
COC(=O)NCCOC(C)(C)c1ccc(-c2nc3c(c(=O)[nH]2)CSCC3)cc1 [Compound 18] = 4
COCCOC(C)(C)c1ccc(-c2nc3c(c(=O)[nH]2)CSCC3)cc1 [Compound 17] = 3
O=c1[nH]c(-c2ccc(-c3ccnc(Br)c3)cc2)nc2c1CSCC2 [Compound 23] = 14
COC(=O)NCCOC(C)(C)c1ccc(-c2nc3c(c(=O)[nH]2)CSCC3)c(C#N)c1 [Compound 38] = 72
O=c1[nH]c(N2CCN(c3ccc(B(O)O)cc3)CC2)nc2c1CSCC2 [Compound 41] = 8.7
O=c1[nH]c(-c2ccc(-c3ccc(B(O)O)cc3O)cc2)nc2c1CSCC2 [Compound 28] = 2
O=c1[nH]c(-c2ccc(-c3ccc(Br)nc3)cc2)nc2c1CSCC2 [Compound 7] = 5
O=c1[nH]c(-c2ccc(-c3ccc(Br)nc3)nc2)nc2c1CSCC2 [Compound 19] = 40
O=c1[nH]c(-c2c(F)cc(-c3ccc(B(O)O)cc3)cc2F)nc2c1CSCC2 [Compound 25] = 63
O=c1[nH]c(-c2ccc(-c3ccc(B(O)O)cc3)cc2)nc2c1CSCC2 [Compound 10] = 3.29
CC(C)(OCCO)c1ccc(-c2nc3c(c(=O)[nH]2)CSCC3)cc1 [Compound 8] = 3.16
O=c1[nH]c(-c2ccc(-c3ccc(Br)nc3)c(F)c2)nc2c1CSCC2 [Compound 20] = 4
O=c1[nH]c(-c2ccc(B(O)O)cc2O)nc2c1CSCC2 [Compound 31] = 3530
O=c1[nH]c(/C=C/c2ccc(C(F)(F)F)cc2)nc2c1CSCC2 [Compound 6] = 2500
CC1(C)OB(O)c2ccc(-c3nc4c(c(=O)[nH]3)CSCC4)cc21 [Compound 44] = 630

---

Listing: Average result of selected compounds
Tested on: E. coli (derived from ATCC ® 8739 ™)
Experiment: Bacteriostasis, log reduction
Type: cell-based
Conditions: E. coli ATCC 8739; 24 h
value.kind: Average result

O=c1[nH]c(-c2ccc(B(O)O)cc2)nc2c1CSCC2 [Compound 1] = 1.3 × 10^4
COC(=O)NCCOC(C)(C)c1ccc(-c2nc3c(c(=O)[nH]2)CSCC3)cc1 [Compound 18] = 5.3 × 10^2
Oc1nc(-c2ccc(C(F)(F)F)cc2)nc2c1CSCC2 [XAV939, reference compound] = 2.7 × 10^3
CC(C)(OCCO)c1ccc(-c2nc3c(c(=O)[nH]2)CSCC3)cc1 [Compound 8] = 3.1 × 10^3
O=c1[nH]c(-c2ccc(-c3ccc(Br)nc3)cc2)nc2c1CSCC2 [Compound 7] = 7.9 × 10^4
O=c1[nH]c(-c2ccc(-c3ccc(B(O)O)cc3)cc2)nc2c1CSCC2 [Compound 10] = <200

---

Tested on: E. coli (derived from ATCC ® 25922 ™)
Assay: Bacteriostasis, log reduction
Assay type: cell-based
Conditions: E. coli ATCC 25922; 72 h
Items are presented alongside their recorded Log Value.
value.kind: Log Value

O=c1[nH]c(-c2ccc(B(O)O)cc2)nc2c1CSCC2 = <2.3
COC(=O)NCCOC(C)(C)c1ccc(-c2nc3c(c(=O)[nH]2)CSCC3)cc1 = <2.3
Oc1nc(-c2ccc(C(F)(F)F)cc2)nc2c1CSCC2 [XAV939, reference compound] = <2.3
O=c1[nH]c(-c2ccc(-c3ccc(Br)nc3)cc2)nc2c1CSCC2 = 4.4
CC(C)(OCCO)c1ccc(-c2nc3c(c(=O)[nH]2)CSCC3)cc1 = <2.3
O=c1[nH]c(-c2ccc(-c3ccc(B(O)O)cc3)cc2)nc2c1CSCC2 = <2.3

---

Recorded measurements of Average result, one per entry
Tested on: E. faecalis (derived from ATCC ® 19433 ™)
Assay: Bacteriostasis, log reduction
Format: cell-based
Details: E. faecalis ATCC 19433; 24 h
value.kind: Average result

COC(=O)NCCOC(C)(C)c1ccc(-c2nc3c(c(=O)[nH]2)CSCC3)cc1 = 2.7 × 10^5
O=c1[nH]c(-c2ccc(-c3ccc(Br)nc3)cc2)nc2c1CSCC2 = 9.3 × 10^5
CC(C)(OCCO)c1ccc(-c2nc3c(c(=O)[nH]2)CSCC3)cc1 = 3.4 × 10^5
O=c1[nH]c(-c2ccc(-c3ccc(B(O)O)cc3)cc2)nc2c1CSCC2 = 2.9 × 10^4
Oc1nc(-c2ccc(C(F)(F)F)cc2)nc2c1CSCC2 [XAV939, reference compound] = 2.6 × 10^5
O=c1[nH]c(-c2ccc(B(O)O)cc2)nc2c1CSCC2 = 1.1 × 10^3

---

Tested on: E. coli (derived from ATCC ® 8739 ™)
Assay: Bacteriostasis, log reduction
Assay type: cell-based
Conditions: E. coli ATCC 8739; 72 h
value.kind: Log Value

O=c1[nH]c(-c2ccc(B(O)O)cc2)nc2c1CSCC2 [Compound 1] = <2.3
CC(C)(OCCO)c1ccc(-c2nc3c(c(=O)[nH]2)CSCC3)cc1 [Compound 8] = 4.8
O=c1[nH]c(-c2ccc(-c3ccc(B(O)O)cc3)cc2)nc2c1CSCC2 [Compound 10] = 2.8
O=c1[nH]c(-c2ccc(-c3ccc(Br)nc3)cc2)nc2c1CSCC2 [Compound 7] = >6.6
COC(=O)NCCOC(C)(C)c1ccc(-c2nc3c(c(=O)[nH]2)CSCC3)cc1 [Compound 18] = <2.3
Oc1nc(-c2ccc(C(F)(F)F)cc2)nc2c1CSCC2 [XAV939, reference compound] = <2.3

---

System: E. coli (derived from ATCC ® 25922 ™)
Assay: Bacteriostasis, log reduction
Format: cell-based
Conditions: E. coli ATCC 25922; 72 h
value.kind: Average result

Oc1nc(-c2ccc(C(F)(F)F)cc2)nc2c1CSCC2 [XAV939, reference compound] = <200
O=c1[nH]c(-c2ccc(-c3ccc(Br)nc3)cc2)nc2c1CSCC2 = 2.7 × 10^4
O=c1[nH]c(-c2ccc(-c3ccc(B(O)O)cc3)cc2)nc2c1CSCC2 = <200
O=c1[nH]c(-c2ccc(B(O)O)cc2)nc2c1CSCC2 = <200
COC(=O)NCCOC(C)(C)c1ccc(-c2nc3c(c(=O)[nH]2)CSCC3)cc1 = <200
CC(C)(OCCO)c1ccc(-c2nc3c(c(=O)[nH]2)CSCC3)cc1 = <200

Reference source for all entries: patent US20260356860A1
